# assay_info: Safety on oral administration to cattle (Example 12)
# condition_set: bovine, in vivo, selenium, cobalt and fenbendazole in combination (preparation of Example 3), read-out: oral administration with no adverse effect observed

- compound: "[Se] [elemental selenium]"
  NOAEL at 504 h: "≥ 20 mg/kg"
- compound: "COC(=O)Nc1nc2ccc(Sc3ccccc3)cc2[nH]1 [Fenbendazole, reference compound]"
  NOAEL at 504 h: "≤ 75 mg/kg"

---

# assay_info: Toxicity in lambs, daily clinical examinations after oral treatment (Example 2)
# condition_set: sheep, in vivo, per os, given together with fenbendazole as developmental formulation, read-out: oral dose levels tolerated, no signs of drug toxicity

- compound: "[Se] [elemental selenium]"
  NOAEL: "≥ 2 mg/kg"

Cited source: patent EP0090368A1
